Hey, just so you know, these numbers are from PubChem BioAssay (NCI).

The entries below are paired with their reported TGI.
- Tested on: OVCAR-4 ovarian
- experiment-notes: NCI tumour cell line growth inhibition, 48 h

# molecule, reported
data = [
    ("C=C1C(=O)OC2/C=C(/C)C3(O)OC(C)(CC(OC(=O)C(C)C)C12)CC3OC(C)=O (stereo not drawn)", "> 65.5 µM"),
    ("O=C(O)CSc1n[nH]c(Cc2ccccc2)n1", "> 100 µM"),
    ("CCOC(CN(C)C(=S)Nc1cccc2ccccc12)OCC", "> 10 µM"),
    ("O=S1(=O)OCCOS(=O)(=O)C1Cl", "> 100 µM"),
    ("O=C(O)CN(c1ccccc1)S(=O)(=O)c1ccc([N+](=O)[O-])cc1", "> 100 µM"),
    ("C/C(CCn1[nH]c(=O)ccc1=O)=N\\OCCCc1ccccc1", "> 100 µM"),
]

Give recorded TGI with OVCAR-4 ovarian for the following molecule: CC1=CC(=O)CC2(C)CCC(C(C)CC(=O)CC(C)C)CC12 (stereo not drawn)
> 100 µM

Same question for `CC(C)CCn1nc(N)c2nc3ccccc3nc21` please.
> 100 µM

Same question for O=C(O)CC(NC(=O)/C(=C/c1ccccc1O)NC(=O)c1ccccc1)C(=O)O (stereo not drawn) please.
> 100 µM

Same question for COc1cc(C(=O)N2CCc3c([nH]c4c([N+](=O)[O-])c(OC)ccc34)C2C)cc(OC)c1OC (stereo not drawn) please.
> 100 µM

Same question for `CC(C)(C)c1ccc(OCC(=O)O)c(Cl)c1` please.
> 100 µM

Same question for COC(C(=O)[C@@H](O)[C@@H](C)O)[C@@H]1Cc2cc3cc(O[C@H]4C[C@@H](O[C@H]5C[C@@H](O)[C@H](O)C(C)O5)[C@H](O)C(C)O4)c(C)c(O)c3c(O)c2C(=O)[C@H]1O[C@H]1C[C@@H](O[C@H]2C[C@@H](O[C@H]3C[C@@H](O)[C@H](OC)C(C)O3)[C@@H](O)C(C)O2)[C@H](O)C(C)O1 (stereo partly drawn) please.
> 26.5 µM

Same question for CC1(C)OC2CC(=O)OCC23C1CC(=O)C1(C)C3CCC2(C)C(c3ccoc3)OC(=O)C3OC321 (stereo not drawn) please.
> 125 µM

Same question for COC(=O)C1=C(C)NC(C)=C([N+](=O)[O-])C1c1cccc(N=O)c1 (stereo not drawn) please.
24.7 µM

Same question for `c1ccc(-c2cnc(-c3ccc(-c4ncc(-c5ccccc5)o4)cc3)o2)cc1` please.
> 100 µM

Same question for COC(=O)c1cc(C)ccc1CC(Cc1ccc(C)cc1)C(=O)OC (stereo not drawn) please.
> 100 µM

Same question for `CC/C=C/C/C=C/C/C=C/C/C=C/C/C=C/C/C=C/CCC(=O)Nc1ccn([C@@H]2O[C@H](CO)[C@@H](O)C2(F)F)c(=O)n1` please.
65.5 µM

Same question for COP(=O)(OC)C12CCOCCN1c1ccccc1C2=O (stereo not drawn) please.
> 100 µM

Same question for `CC(C)(C)OC(=O)n1c(-c2ccccc2F)cc(=O)c2cc3c(cc21)OCO3` please.
> 100 µM

Same question for `CCCCN(CCCC)C(=C(C(Cl)=C(Cl)Cl)[N+](=O)[O-])N(CCCC)CCCC` please.
> 100 µM

Same question for `CC1=C(c2cc(C(=O)Nc3ccc(Cl)cc3)nc(=S)[nH]2)Sc2ccccc2N1` please.
> 100 µM

Same question for O=C(c1ccco1)C1CC(c2c(O)ccc3ccccc23)=NN1 (stereo not drawn) please.
> 100 µM

Same question for O=[N+]([O-])c1ccc(C2=Nc3ccccc3SC(c3ccccc3)C2)cc1 (stereo not drawn) please.
27.3 µM

Same question for `Cc1ncc([N+](=O)[O-])n1CCNS(=O)(=O)CCCn1ncnc1[N+](=O)[O-]` please.
> 100 µM

---

The entries below are paired with their reported TGI.
- Test system: SF-539 CNS
- experiment-notes: NCI tumour cell line growth inhibition, 48 h

# compound, property-label, reported
data = [
    ("Cc1ccc(-c2c(C#N)c(-c3ccc([N+](=O)[O-])cc3)c(C#N)c(=O)n2NS(=O)(=O)c2ccccc2)cc1", "TGI", "> 100 µM"),
    ("O=C(N/N=C/c1ccc([N+](=O)[O-])o1)c1ccc(O)cc1", "TGI", "17 µM"),
    ("c1ccc(CSc2nc3ccccc3nc2-c2cccs2)cc1", "TGI", "> 100 µM"),
    ("Cc1nn(C(=O)c2ccc(Cl)cc2)c2c1C(c1ccc(O)cc1)SC(N)=N2 (centres undefined)", "TGI", "> 10 µM"),
    ("COc1cc(C(=O)N2CCc3c([nH]c4c([N+](=O)[O-])c(OC)ccc34)C2C)cc(OC)c1OC (centres undefined)", "TGI", "> 100 µM"),
]

# get_value(readout='TGI', item= `CC1=C(C(=O)Nc2ccccc2)C(c2ccc(C3C(C(=O)Nc4ccccc4)=C(C)NC(C)=C3C(=O)Nc3ccccc3)cc2)C(C(=O)Nc2ccccc2)=C(C)N1` )
5.97 µM

Same question for `N#CCCN(CCC#N)c1ccc(/C=C2\SC(=S)NC2=O)cc1Br` please.
> 100 µM

Same question for `Cc1ccc(Nc2nnc(-c3ccc4c(c3)OCO4)o2)c(C)c1` please.
> 100 µM

Same question for `Cc1c2ccncc2c(C)c2c1[nH]c1ccccc12` please.
2.11 µM

---

- Test system: UO-31 renal
- experiment-notes: NCI tumour cell line growth inhibition, 48 h
property-label: GI50

# substance-smiles, tgt, GI50
records = [
    ("O=C1C(Cl)=C(Nc2ccccc2O)C(=O)N1Cc1ccccc1", "UO-31 renal", "15.9 µM"),
]

# get_value(readout='GI50', item= `COc1ccc2c(Oc3ccc(NC(=O)c4c(C)n(CC(C)(C)O)n(-c5ccccc5)c4=O)nc3)ccnc2c1` )
4.41 µM

Same question for `[F][Sn]([F])([c]1ccccc1)[c]1ccccc1` please.
1.92 µM

Same question for `Cc1cc(C)n(-c2nnc3n2N=C(c2ccc(-c4ccccc4)cc2)CS3)n1` please.
3.38 µM

Same question for `O=C(NO)c1ccc(CN(c2cnccn2)c2cnccn2)cc1` please.
12.9 µM

---

The entries below are paired with their reported TGI.
- System: SF-268 CNS
- experiment-notes: NCI tumour cell line growth inhibition, 48 h

# compound, tgt, TGI
measured = [
    ("COC(=O)C1(Cc2ccc3c(c2)CCC3)Cc2ccccc2C1=O (centres undefined)", "SF-268 CNS", "70.7 µM"),
    ("CCCCc1c2c(nc3c1CCC/C3=C\\c1ccccc1)/C(=C/c1ccccc1)CCC2", "SF-268 CNS", "> 100 µM"),
    ("COC(=O)C1(Cc2ccc3c(c2)CCC3)Cc2cc3c(cc2C1)CCC3", "SF-268 CNS", "> 100 µM"),
    ("Cc1cc2nc(-c3cc(C(C)(C)C)c(O)c(C(C)(C)C)c3)[nH]c2cc1C", "SF-268 CNS", "> 100 µM"),
]

# get_value(readout='TGI', item= COC(=O)C1=C(O)C(C(=O)OC)[C@@]2(O)[C@@H](C(=O)OC)[C@H](C)[C@@H](C)[C@@H]1[C@@H]2C(=O)OC (some centres undefined) )
> 100 µM

Same question for `O=C(O)CSc1n[nH]c(Cc2ccccc2)n1` please.
> 100 µM

Same question for CC(C(=O)n1c2ccccc2c2ccccc21)N(c1ccccc1)c1ccccc1 (centres undefined) please.
36.2 µM

Same question for `Cc1cc2c(nn1)-c1ccccc1C2=O` please.
> 10 µM

Same question for `COc1ccc(N=C2C(=S)N(c3ccc(OC)cc3)/C(=N/S(=O)(=O)c3ccccc3)N2c2ccccc2)cc1` please.
29.2 µM

Same question for `Cc1cc(C)n(-c2nnc3n2N=C(c2ccc(-c4ccccc4)cc2)CS3)n1` please.
> 100 µM

Same question for COC(=O)c1cc(C)ccc1CC(Cc1ccc(C)cc1)C(=O)OC (centres undefined) please.
> 35.3 µM

Same question for `N#CCCN(CCC#N)c1ccc(/C=C2\SC(=S)NC2=O)cc1Br` please.
> 100 µM

Same question for `COc1ccc2c(Oc3ccc(NC(=O)c4c(C)n(CC(C)(C)O)n(-c5ccccc5)c4=O)nc3)ccnc2c1` please.
> 100 µM

Same question for `Nc1ccc2[nH]cc(CCC(=O)O)c2c1` please.
> 100 µM

---

The entries below are paired with their reported TGI.
- Test system: A498 renal
- experiment-notes: NCI tumour cell line growth inhibition, 48 h
The reply should contain only the number, in µM.

# molecule, tgt, endpoint-unit, reported
measured = [
    ("C[C@H]1CCC/C=C/[C@@H]2C[C@H](O)C[C@H]2[C@H](O)[C@@H](SCC(O)CO)CC(=O)O1 (some centres not stated)", "A498 renal", "µM", 50.2),
    ("Clc1cc(Cl)cc(Nc2ccc3cc(OCCCN4CCOCC4)ccc3n2)c1", "A498 renal", "µM", 8.78),
    ("CC1=C(C(=O)Nc2ccccc2)C(c2ccc(C3C(C(=O)Nc4ccccc4)=C(C)NC(C)=C3C(=O)Nc3ccccc3)cc2)C(C(=O)Nc2ccccc2)=C(C)N1", "A498 renal", "µM", 24),
    ("CSC(SC)=C1C(=O)N(c2ccccc2)N=C1C", "A498 renal", "µM", 90.5),
    ("COc1c(O)c(O)cc2c1-c1ccc(OC)c(=O)cc1C(NC(C)=O)CC2 (configuration not stated)", "A498 renal", "µM", 89),
    ("O=c1oc2ccc(Br)cc2c(=O)n1-c1ccc(F)cc1F", "A498 renal", "µM", 3.02),
]

Give recorded TGI with A498 renal for the following molecule: `C=C(C)[C@@]1(O[Si](C)(C)C)CCCC[C@@H]1CC(Sc1ccccc1)Sc1ccccc1`
34.5

Same question for `COC(=O)[C@H](Cc1ccccc1)NC(=O)c1ccc(CNC(=O)/C=C/c2cccc(Oc3ccccc3)c2)cc1` please.
51.7

Same question for OC1(c2ccc(Cl)cc2)c2ccc(CN3CCCC3)cc2C2=NCCN21 (configuration not stated) please.
25.8

Same question for `c1csc(-c2c3ccc(=[N+]4CCCCC4)cc-3oc3cc(N4CCCCC4)ccc23)c1` please.
0.453

Same question for `Clc1ccc(Cl)c(SCCCN2CCNCC2)c1` please.
28.2
